experiment: protein stability index of a GFP-peptide fusion (yeast GPS) (PSI 1-4); higher = more stable; sorted into four equal gates, so the index is relative within each strain; conditions: doa10∆
quantity: protein stability index
Give bare numbers.

Known protein stability index results, listed for orientation:
SFYDAIFFNIPLVAHLG [YJL039C/NUP192] ... 1.73
ISTACPRLDDVVVDTVE [SMC4] ... 3.51
HIQEEEEQDVDMTGDEE [RPC19] ... 3.38
VLSSVREPDFWVIRKQR [MED6] ... 3.52
SSFKKNLLKFITSNHKS [RPN3] ... 1.46

Answer for every listed entry: what is its protein stability index? The entries follow.
1. VYTQSNGKTRTLENTLK [RPS2]
2. TRSLKYGKLRNGMFCQV [RRP4]
3. VSRGQSAVLLETTLGEM [PRP8]
4. FSSNLSYANHLEESDVE [YOR098C/NUP1]
5. LIKQVPRLLGPQLSKAG [RPL1A]
6. EIPEGVTVSIKSRIVKV [RPL9B]

Response:
3.45
1.42
2.13
2.45
1.98
1.29

###

assay: protein stability index of a GFP-peptide fusion (yeast GPS) (PSI 1-4); higher = more stable; sorted into four equal gates, so the index is relative within each strain; conditions: pdr5∆
quantity: protein stability index
Give bare numbers.

VVLVSGEGERFTVDKKI [SKP1] ... 3.6
PLQVARCTKIIKGNGES [RPT1] ... 2.96
ASLADVMSIESLVEVVF [FAS1] ... 2.18
EKNYDRKEPPATVEECV [PRE6] ... 3.29
YLHNVELGEKKNEKLKF [ISW2] ... 2.68

Items follow; give protein stability index for each.
1. YSSYIYKVLKQTHPDTG [HTB1]
2. RSTDVWYEASTWIQQFK [ARP7]
3. ATSVESVDIGVETILSG [FAS2]

Response:
[2.05, 3.64, 2.9]

###

assay: protein stability index of a GFP-peptide fusion (yeast GPS) (PSI 1-4); higher = more stable; sorted into four equal gates, so the index is relative within each strain; conditions: ubr1∆
Lab note: class by protein stability index, see lower segment (below 2), middle segment (2 to below 3), upper segment (3 or more)

VIAHLTVEALDFREKAL [RET1] ... middle segment
HIQEEEEQDVDMTGDEE [RPC19] ... upper segment
LKGLNGFPSAPQPLFME [YMR153W/NUP53] ... middle segment
ITLRGVENIERVVMMKY [RPO21] ... middle segment
KRLLGTAFKSSPFGGSS [RPS23A] ... middle segment
KRSMDAEQLGHASKRHK [RPP1] ... middle segment
AISTGNWSLKRFKMERA [RET1] ... lower segment
TLVHTRVKIANTSAATV [SSN2] ... middle segment

Query: Class for KENLSKSSWRQEWLANL [SIR4] ?
Response: middle segment

Query: Entry EATREVFGISKTSSGSY [ITC1] belongs to which category?
Response: upper segment

Query: State the class of the sequence shown: IYDFITLFSSIEPQVIN [ECM29]
Response: middle segment

Query: Category of LKVRKGHIAKLMATEYQ [RPB2] :
Response: lower segment

Query: Hi, small favor: classify KEDEPVVARRSNSANVS [ITC1] by its protein stability index when you get a moment.
Response: middle segment

Query: Category lookup for the sequence AMEFIFGNSLICEDPET [SMC2]
Response: lower segment
